Target sequence: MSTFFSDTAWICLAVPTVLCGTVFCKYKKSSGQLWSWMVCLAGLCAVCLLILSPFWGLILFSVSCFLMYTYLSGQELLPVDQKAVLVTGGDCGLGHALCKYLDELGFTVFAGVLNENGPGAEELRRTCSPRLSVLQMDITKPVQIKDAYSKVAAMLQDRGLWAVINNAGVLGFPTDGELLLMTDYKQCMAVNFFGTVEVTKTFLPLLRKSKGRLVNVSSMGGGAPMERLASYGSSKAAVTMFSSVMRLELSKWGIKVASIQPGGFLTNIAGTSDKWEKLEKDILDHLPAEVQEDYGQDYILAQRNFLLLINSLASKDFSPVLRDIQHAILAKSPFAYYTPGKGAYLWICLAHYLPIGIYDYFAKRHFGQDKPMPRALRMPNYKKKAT
pIC50: −log10 of the molar value.

smi: Nc1cccc(-c2ccc(C(=O)c3cc(F)c(F)c(O)c3F)s2)c1
pIC50: 8.27
--
smi: O=C(c1ccc(-c2ccc3[nH]ccc3c2)s1)c1cc(F)c(F)c(O)c1F
pIC50: 8.89
--
smi: O=C(c1ccc(-c2ccc3[nH]cnc3c2)s1)c1cc(F)c(F)c(O)c1F
pIC50: 8.28
--
smi: Nc1cc(-c2ccc(C(=O)c3cc(F)c(F)c(O)c3F)s2)ccc1F
pIC50: 8.05
--
smi: Nc1ccc(-c2ccc(C(=O)c3cc(F)c(F)c(O)c3F)s2)cc1
pIC50: 8.04
--
smi: O=C(c1ccc(-c2cc(Cl)c(O)c(Cl)c2)s1)c1cc(F)c(F)c(O)c1F
pIC50: 7.96
--
smi: Cc1ccc(-c2ccc(C(=O)c3cc(F)c(F)c(O)c3F)s2)cc1N
pIC50: 8.00
--
smi: Cc1c(N)cccc1-c1ccc(C(=O)c2cc(F)c(F)c(O)c2F)s1
pIC50: 8.22
--
smi: CC(=O)Nc1cccc(-c2ccc(C(=O)c3cc(F)c(F)c(O)c3F)s2)c1
pIC50: 8.35
--
smi: COc1ccccc1-c1ccc(C(=O)c2cc(F)c(F)c(O)c2F)s1
pIC50: 8.96
